Numbers sourced from paper PMC8151276.

target: CCR5 (Homo sapiens)
Construct: purchased Promega (in-house HiBiT-GPCR construct library, NanoBRET)
Sequence (P51681 whole entry): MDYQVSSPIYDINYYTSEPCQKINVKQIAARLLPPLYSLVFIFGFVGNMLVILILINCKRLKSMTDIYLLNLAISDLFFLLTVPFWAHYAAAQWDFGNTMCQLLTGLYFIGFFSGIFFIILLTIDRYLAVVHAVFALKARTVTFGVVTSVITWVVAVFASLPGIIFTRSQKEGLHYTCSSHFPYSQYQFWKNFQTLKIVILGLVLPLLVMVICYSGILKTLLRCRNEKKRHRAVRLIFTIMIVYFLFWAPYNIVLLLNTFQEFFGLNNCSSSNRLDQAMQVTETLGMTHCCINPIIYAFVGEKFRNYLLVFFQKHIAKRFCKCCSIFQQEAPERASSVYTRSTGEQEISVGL
assay-info: NanoBRET screen HiBiT-CCR5 in HEK293
Format: binding
particulars: CCR5; tracer 0.1μM
readout-type: NanoBRET Fold Response
Write the value as a bare number.

Some solved entries appear below for comparison.
| smiles-notation | NanoBRET Fold Response |
| --- | --- |
| Cc1cc2c(s1)Nc1ccccc1N=C2N1CCN(CCCNC(=O)CCOCCOCCOCCOCCNC(=O)CCc2ccc3n2[B-](F)(F)[N+]2=C(c4ccc[nH]4)C=CC2=C3)CC1 | 1.00 |
| N#CN=C(NCCCOc1cccc(CN2CCCCC2)c1)NCCNC(=O)CCOCCOCCOCCOCCNC(=O)CCc1ccc2n1[B-](F)(F)[N+]1=C(c3ccc[nH]3)C=CC1=C2 | 1.00 |

Then this compound:
Data point: `O=C(CCOCCOCCOCCOCCNC(=O)CCc1ccc2n1[B-](F)(F)[N+]1=C(c3ccc[nH]3)C=CC1=C2)NCCCN1CCN(C2=Nc3ccccc3Oc3ccc(Cl)cc32)CC1` ; NanoBRET Fold Response = 1.00

---

NanoBRET Fold Response by entry:
target: AVPR1A (Homo sapiens)
Construct: purchased Promega (in-house HiBiT-GPCR construct library, NanoBRET)
Sequence (P37288 whole entry): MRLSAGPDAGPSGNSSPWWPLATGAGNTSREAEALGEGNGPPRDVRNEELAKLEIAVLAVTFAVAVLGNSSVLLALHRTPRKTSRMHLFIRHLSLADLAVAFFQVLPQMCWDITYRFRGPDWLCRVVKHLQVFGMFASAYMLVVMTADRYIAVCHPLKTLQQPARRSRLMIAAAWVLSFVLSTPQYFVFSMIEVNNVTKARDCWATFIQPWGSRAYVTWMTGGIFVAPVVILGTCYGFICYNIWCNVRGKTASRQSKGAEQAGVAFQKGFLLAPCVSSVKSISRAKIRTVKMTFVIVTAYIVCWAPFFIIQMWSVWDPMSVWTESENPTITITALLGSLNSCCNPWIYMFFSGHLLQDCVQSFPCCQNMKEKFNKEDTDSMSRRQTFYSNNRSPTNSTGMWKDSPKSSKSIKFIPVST
assay-info: NanoBRET screen HiBiT-AVPR1A in HEK293
Assay type: binding
particulars: AVPR1A; tracer 0.1μM
Kindly provide the number alone.

Solved cases (5 shown):
| compound | NanoBRET Fold Response |
| --- | --- |
| N#CN=C(NCCCOc1cccc(CN2CCCCC2)c1)NCCNC(=O)CCOCCOCCOCCOCCNC(=O)CCc1ccc2n1[B-](F)(F)[N+]1=C(c3ccc[nH]3)C=CC1=C2 [Aminopotentidine-2-NB590] | 0.93 |
| COc1ccccc1N1CCN(CCCCN2C(=O)c3ccc(CNC(=O)CCOCCNC(=O)c4ccc(CNC(=O)CCc5ccc6n5[B-](F)(F)[N+]5=C(c7ccc[nH]7)C=CC5=C6)cc4)cc3C2=O)CC1 [NAN-190-3-NB590] | 0.90 |
| O=C(CCc1ccc2n1[B-](F)(F)[N+]1=C(c3ccc[nH]3)C=CC1=C2)NCCOCCOCCNC(=O)OCCOCCN1CCN(C2=Nc3ccccc3Sc3ccccc32)CC1 [Quetiapine-a-2-NB590] | 1.02 |
| Cc1nc2n(c(=O)c1CCN1CCC(c3noc4cc(F)ccc34)CC1)CCCC2OC(=O)NCCOCCOCCOCCOCCNC(=O)CCc1ccc2n1[B-](F)(F)[N+]1=C(c3ccc[nH]3)C=CC1=C2 (stereo not shown) [Risperidone-2-NB590] | 0.90 |
| CCCn1c(=O)c2[nH]c(-c3ccc(OCC(=O)NCCNC(=O)CCOCCNC(=O)c4ccc(CNC(=O)CCc5ccc6n5[B-](F)(F)[N+]5=C(c7ccc[nH]7)C=CC5=C6)cc4)cc3)nc2n(CCC)c1=O [XAC-3-NB590] | 1.25 |

CC(C)N(CC[C@H](c1ccccc1)c1cc(CCNC(=O)c2ccc(CNC(=O)CCc3ccc4n3[B-](F)(F)[N+]3=C(c5ccc[nH]5)C=CC3=C4)cc2)ccc1O)C(C)C [Tolterodine-BZ-NB590] yielded NanoBRET Fold Response of 1.15

Entry under test: CC(C)N(CC[C@H](c1ccccc1)c1cc(CCNC(=O)CCOCCOCCOCCOCCNC(=O)CCc2ccc3n2[B-](F)(F)[N+]2=C(c4ccc[nH]4)C=CC2=C3)ccc1O)C(C)C [Tolterodine-2-NB590] . Its NanoBRET Fold Response was 0.91

Data point: O=C(CCc1ccc2n1[B-](F)(F)[N+]1=C(c3ccc[nH]3)C=CC1=C2)NCc1ccc(C(=O)NCCOCCC(=O)N[C@@H]2CC[C@@]3(O)[C@H]4Cc5ccc(O)c6c5[C@@]3(CCN4CC3CC3)[C@H]2O6)cc1 [Naltrexone-3-NB590] ; NanoBRET Fold Response = 1.34

The compound Cc1cc2c(s1)Nc1ccccc1N=C2N1CCN(CCCNC(=O)CCOCCOCCOCCOCCNC(=O)CCc2ccc3n2[B-](F)(F)[N+]2=C(c4ccc[nH]4)C=CC2=C3)CC1 [Olanzapine-a-2-NB590] showed NanoBRET Fold Response equal to 1.11

Sample COc1ccccc1N1CCN(CCCCN2C(=O)c3ccc(CNC(=O)CCOCCOCCOCCOCCNC(=O)CCc4ccc5n4[B-](F)(F)[N+]4=C(c6ccc[nH]6)C=CC4=C5)cc3C2=O)CC1 [NAN-190-2-NB590] ; NanoBRET Fold Response observed: 0.97
